- Tested on: SUP-B15
- assay-notes: ATP-based luminescence cell viability (CellTiter Glo), drug response score, SUP-B15
- Parameters: scale not given here
- measurement-parameters: SUP-B15, Target compression, 7 Pick 3 pools
parameter-measured: DRS from deconvolution

1) N#Cc1ccnc(N2C(=O)CC[C@H]2C(=O)N(c2cncc(F)c2)[C@H](C(=O)NC2CC(F)(F)C2)c2ccccc2Cl)c1 0.00
2) CC1(C)CCC(CN2CCN(c3ccc(C(=O)NS(=O)(=O)c4ccc(NCC5CCOCC5)c([N+](=O)[O-])c4)c(Oc4cnc5[nH]ccc5c4)c3)CC2)=C(c2ccc(Cl)cc2)C1 35.04
3) COc1c(OCCCN2CCOCC2)ccc2c1N=C(NC(=O)c1cnc(N)nc1)N1CCN=C21 1.91
4) Cc1[nH]c2ccccc2c1CCNCc1ccc(/C=C/C(=O)NO)cc1 21.78
